tested on: SW-620; assay: NCI tumour cell line growth inhibition, 48 h
Activity calls are given as the source filed them. Rule as the data show it: active = GI50 up to about 1.1 µM and inactive = higher.
# output must be one of active, inactive

Query: Name the outcome recorded for O=C1C(Cl)C(c2cccc(O)c2)N1n1cnc2ccccc2c1=O (configuration not stated) in the assay.
Response: inactive

Query: // return assay outcome for Cc1ccc(S(=O)(=O)Nc2ccccc2C(C)(C)C)cc1
Response: inactive

Query: Per the assay record, what outcome was assigned to Cc1nn(-c2ccccc2)c2c1CC(=O)Nc1ccccc1-2 ?
Response: active

* * *

system: SN12C; assay: NCI tumour cell line growth inhibition, 48 h
Active and inactive are the calls of the source. Rule as the data show it: active = GI50 up to about 1.1 µM and inactive = higher.
The reply should name one outcome from y = active, n = inactive

Query: For CCCNCC(=O)O[C@]1(CC)C(=O)OCc2c1cc1n(c2=O)Cc2cc3ccccc3nc2-1 , which call appears in the assay record?
Response: y

Query: Short answer needed: outcome of this test for c1ccc(CSCCc2ccncc2)cc1 ?
Response: n

Query: Hi team, can someone confirm the assay call for CN(C)CCCNC(=O)c1c(-c2cccnc2)cnc2ccccc12 ?
Response: n

Query: Kindly provide the recorded test outcome for the following compound: CC1=Nc2ccccc2C1C(Cc1ccccc1N)c1c(C)[nH]c2ccccc12 (configuration not stated)
Response: n

Query: For CN(C)/C=N\c1cccc2c1NSN2 , which call appears in the assay record?
Response: n
